This collection of values is drawn from PubChem BioAssay (EPA / NIEHS).

MEASUREMENT_PROTOCOL: BSK_hDFCGF_Proliferation: Cell Proliferation Assessment in the BioMAP Diversity Plus: hDFCGF Assay (AID 2283059);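 further: curves fitted for both rise and fall of signal versus DMSO baseline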
CONDITION_CONTEXT: primary human foreskin fibroblasts
The source made the active and inactive calls. How the source made its calls: active means hit-call score of the fitted dose curve at least 0.9, where 1 is the maximum; inactive means score below 0.9.
Classes used: yes (active), no (inactive)

ENTRY_SMILES	CLASSIFICATION
O=C(Nc1ccc(Cl)cc1)Nc1ccc(Cl)c(Cl)c1	yes
CC(C)(O)c1ccc(CNC(=O)c2cccnc2Oc2ccc3nonc3c2)cc1	no
O=C(O)Cn1c(=O)n(Cc2ccc(Br)cc2F)c(=O)c2ccc(Cl)cc21	no
O=C1O[C@H]([C@@H](O)CO)C(O)=C1O	no
CCCCCc1ccc(N)cc1	yes
CC(C)(C)c1cc(/C=C2\SC(N)=NC2=O)cc(C(C)(C)C)c1O	yes

====

EXPERIMENTAL_TARGET: human Adrenergic, Alpha 2c Receptor (Adra2C), ADRA2C (gene 152)
MEASUREMENT_PROTOCOL: NVS_GPCR_hAdra2C: NovaScreen (NVS) G Protein-Coupled Receptor Assay for human Adrenergic, Alpha 2c Receptor (Adra2C) (AID 2283259)
Records with an inconclusive call do not appear. Calls of active or inactive are those of the source. How the source made its calls: active means hit-call score of the fitted dose curve at least 0.9, where 1 is the maximum; inconclusive means response in the unintended direction; inactive means score below 0.9.
The reader will find reported AC50 values listed item by item below.

ENTRY_SMILES	EXPERIMENTAL_TARGET	AC50
O=C1c2ccccc2C(=O)N1CCc1noc(-c2ccc(CN3CCCCCC3)s2)n1	human Adrenergic, Alpha 2c Receptor (Adra2C), ADRA2C (gene 152)	1.08 µM (active)
COc1cc(C(=O)NC2CCN(C)CC2)ccc1Nc1ncc2c(n1)N(C1CCCC1)CC(F)(F)C(=O)N2C	human Adrenergic, Alpha 2c Receptor (Adra2C), ADRA2C (gene 152)	6.01 µM (active)
NCc1cccc(C2CCN(C(=O)c3ccc(C#Cc4ccccc4F)o3)CC2)c1	human Adrenergic, Alpha 2c Receptor (Adra2C), ADRA2C (gene 152)	4.51 µM (active)
CCN(Cc1cccnc1)C(=O)c1cccc(Cl)c1[C@]1(C)C(=O)N(Cc2ccc(OC)cc2OC)c2ccc(Cl)cc21	human Adrenergic, Alpha 2c Receptor (Adra2C), ADRA2C (gene 152)	2.22 µM (active)
Clc1cc(Cl)c2c(c1)N=C1CCCCCN1C2	human Adrenergic, Alpha 2c Receptor (Adra2C), ADRA2C (gene 152)	5.73 µM (active)
CN(C)C(=O)C1(N2CCCCC2)CCN(CC[C@@]2(c3ccc(Cl)c(Cl)c3)CN(C(=O)c3ccccc3)CCO2)CC1	human Adrenergic, Alpha 2c Receptor (Adra2C), ADRA2C (gene 152)	12.1 µM (active)
Cc1occc1C(=O)Nc1ccc(C(=O)N2CCC(F)(F)/C(=C\C(=O)N3CCC(N4CCCCC4)CC3)c3ccccc32)cc1	human Adrenergic, Alpha 2c Receptor (Adra2C), ADRA2C (gene 152)	1.03 µM (active)

====

MEASUREMENT_PROTOCOL: ATG_BRE_CIS: Attagene CIS-FACTORIAL HepG2 Assay for human Bone Morphogenetic Protein (BMP) Response Element (BRE) (AID 2282933)
CONDITION_CONTEXT: HepG2 BMP response element reporter, Attagene transcription factor profiling; actives raise or lower the signal
Activity calls are given as the source filed them. The calls were made as follows: active = hit-call score of the fitted dose curve at least 0.9, where 1 is the maximum; inactive = score below 0.9.
Classes used: active, inactive

ENTRY_SMILES	CLASSIFICATION
CCN(Cc1cccnc1)C(=O)c1cccc(Cl)c1[C@]1(C)C(=O)N(Cc2ccc(OC)cc2OC)c2ccc(Cl)cc21	inactive
Clc1ccccc1C(c1ccccc1)(c1ccccc1)n1ccnc1	active
CCCCCCCCOc1ccc(C(=O)c2ccccc2)c(O)c1	inactive
Cc1cc2c(cc1C(F)(F)F)N(C(=O)Nc1ccc(Oc3cccnc3C)nc1)CC2	inactive
Cc1cn([C@H]2C[C@H](N=[N+]=[N-])[C@@H](CO)O2)c(=O)[nH]c1=O	inactive
CC1(C)NC(=O)N(c2ccc([N+](=O)[O-])c(C(F)(F)F)c2)C1=O	inactive
Oc1ccc2ccccc2c1	inactive
CCN(CC)C(=O)c1cc(S(=O)(=O)Cc2ccccc2)c(N2CCC(c3ccccc3)CC2)cc1N(CC)CCN(C)C	inactive
O=C=NCCCCCCN=C=O	inactive
Cc1ccc2oc(CN(Cc3ccccc3)C(=O)Nc3c(F)cc(F)cc3F)c(-c3ccc(Cl)cc3)c2c1	inactive
CCCC(=O)OCCC(C)C	inactive

====

MEASUREMENT_PROTOCOL: ATG_AP_1_CIS: Attagene CIS-FACTORIAL HepG2 Assay for human Activator Protein 1 (AP-1) (AID 2282931)
CONDITION_CONTEXT: HepG2 Attagene cis-factorial AP-1 reporter mRNA; actives raise or lower the signal
Experimental: ATG_CIS is a cell-based, multiplexed-readout assay that uses HepG2, a human liver cell line, with measurements taken at 24 hours after chemical dosing in a 24-well plate.ATG_AP_1_CIS is one of 52 assay component(s) measured or calculated from the ATG_CIS assay. […] This assay endpoint, ATG_AP_1_CIS, was analyzed with bidirectional fitting relative to DMSO as the negative control and baseline of activity. […]
The source made the active and inactive calls. How the source made its calls: active means hit-call score of the fitted dose curve at least 0.9, where 1 is the maximum; inactive means score below 0.9.
Classes used: active, inactive

ENTRY_SMILES	CLASSIFICATION
c1ccc2ccccc2c1	inactive
Cc1c2ccccc2c(C)c2c1ccc1ccccc12	active
CCCCCCCCCC(=O)O	inactive
Cc1cc(F)ccc1-c1cc(N2CC[C@@H](O)[C@H]2CO)ncc1N(C)C(=O)C(C)(C)c1cc(C(F)(F)F)cc(C(F)(F)F)c1	inactive

====

Read-out: Cytochrome P450 4A22 (Homo sapiens)
MEASUREMENT_PROTOCOL: LTEA_HepaRG_CYP4A22: Life Technologies and Expression Analysis (LTEA) Assay for Cytochrome P450 4A22 (CYP4A22) using HepaRG (AID 2283495)
CONDITION_CONTEXT: mRNA level, 48 h; actives raise or lower the signal
Calls of active or inactive are those of the source. The calls were made as follows: active = hit-call score of the fitted dose curve at least 0.9, where 1 is the maximum; inactive = score below 0.9.
Classes used: 1 (yes) = active, 0 (no) = inactive

COMPOUND	CLASSIFICATION
O=C1c2ccccc2C(=O)N1CCc1noc(-c2ccc(CN3CCCCCC3)s2)n1	0 (no)
Cc1ccc2oc(CN(Cc3ccccc3)C(=O)Nc3c(F)cc(F)cc3F)c(-c3ccc(Cl)cc3)c2c1	1 (yes)
CCCCCCCCOc1ccc(C(=O)c2ccccc2)c(O)c1	0 (no)
CN1C(=O)N(c2ccccc2Br)Cc2cnc(Nc3ccc4c(c3)OCC(CO)O4)nc21 (stereo unspecified)	1 (yes)
O=C(O)Cc1cc(I)c(Oc2ccc(O)c(I)c2)c(I)c1	1 (yes)
Cc1ccc(C(C)C)cc1	0 (no)
NC(=O)c1nc(-c2cccc(-c3cc(F)ccc3OCC(F)(F)C(F)(F)F)c2)n[nH]1	1 (yes)
Cc1cccc2ccccc12	0 (no)
CC(O)CC(C)(C)O (stereo unspecified)	0 (no)
CC/C(=C(/CC)c1ccc(O)cc1)c1ccc(O)cc1	0 (no)
COc1ccc2cc(S(=O)(=O)N[C@H](CC(=O)N[C@H](Cc3ccc(CN4[C@H](C)CCC[C@@H]4C)cc3)C(=O)N(C)C(C)C)c3ccc4c(c3)OCO4)ccc2c1	1 (yes)
O=c1c(-c2ccc(O)cc2)coc2cc(O)cc(O)c12	0 (no)
c1ccc(C[n+]2cccc3ccccc32)cc1	1 (yes)
CC(C)(c1cc(Br)c(O)c(Br)c1)c1cc(Br)c(O)c(Br)c1	0 (no)
CN(C[C@@H](CC[N+]12CCC(C3CCCCC3)(CC1)CC2)c1ccc(Cl)c(Cl)c1)C(=O)c1cc(C(F)(F)F)cc(C(F)(F)F)c1	1 (yes)
Cc1cn([C@H]2C[C@H](N=[N+]=[N-])[C@@H](CO)O2)c(=O)[nH]c1=O	0 (no)
CC[C@@H]1C[C@H](N(Cc2cc(C(F)(F)F)cc(C(F)(F)F)c2)C(C)=O)c2cc(C(F)(F)F)ccc2N1C(=O)OC(C)C	1 (yes)
O=c1[nH]sc2ccccc12	0 (no)
COc1cccc([C@H](O)C2CCN(CCc3ccc(F)cc3)CC2)c1OC	0 (no)
CN1C(=O)CC[C@H]1c1cccnc1	0 (no)
CCOC(=O)O[C@H](C)OC(=O)c1ccc2c(c1)cc(C(=O)NC1CCN(C(C)C)CC1)n2Cc1cc(-c2ccc(Cl)s2)on1	0 (no)

====

Read-out: MicroRNA 122 (MIR122), gene 406906
MEASUREMENT_PROTOCOL: LTEA_HepaRG_MIR122: Life Technologies and Expression Analysis (LTEA) Assay for MicroRNA 122 (MIR122) using HepaRG (AID 2283516); further: the transcript read is the microRNA miR-122
CONDITION_CONTEXT: mRNA level, 48 h; actives raise or lower the signal
Active and inactive are the calls of the source. The calls were made as follows: active = hit-call score of the fitted dose curve at least 0.9, where 1 is the maximum; inactive = score below 0.9.
Classes used: t for active, f for inactive

ENTRY_SMILES	CLASSIFICATION
CO[C@H]1/C=C/O[C@@]2(C)Oc3c(C)c(O)c4c(O)c(c(/C=N/N5CCN(C)CC5)c(O)c4c3C2=O)NC(=O)/C(C)=C\C=C\[C@H](C)[C@H](O)[C@@H](C)[C@@H](O)[C@@H](C)[C@H](OC(C)=O)[C@@H]1C	f
NCc1cccc(C2CCN(C(=O)c3ccc(C#Cc4ccccc4F)o3)CC2)c1	t
CC[C@@H]1C[C@H](N(Cc2cc(C(F)(F)F)cc(C(F)(F)F)c2)C(C)=O)c2cc(C(F)(F)F)ccc2N1C(=O)OC(C)C	f
